Values from patent US20220323383A1

compounds and their reported MIC against clinical isolates of bacteria
# System: A. baumannii R674
# protocol summary: Individual antibacterial activity (MIC) of adjuvants
# Format: cell-based
# recorded conditions: adjuvant alone; A. baumannii R674
property label: MIC against clinical isolates of bacteria

> print(dat)
                                   compound  data.value
1  NCCCN(CCCN)CC(=O)NC1C2CC3CC(C2)CC1C3.O=C(O)C(F)(F)F.O=C(O)C(F)(F)F.O=C(O)C(F)(F)F (stereo not drawn)   512 µg/mL
2  NCCCN(CCCN)C(=O)CC(c1ccccc1)c1ccccc1.O=C(O)C(F)(F)F.O=C(O)C(F)(F)F  >512 µg/mL
3  NCCCCCCN(CCCCCCN)CC(=O)NC1C2CC3CC(C2)CC1C3.O=C(O)C(F)(F)F.O=C(O)C(F)(F)F.O=C(O)C(F)(F)F (stereo not drawn)    64 µg/mL
4  CC(C)(C)OC(=O)NC(Cc1c[nH]c2ccccc12)C(=O)N(CCCN)CCCN.O=C(O)C(F)(F)F.O=C(O)C(F)(F)F.O=C(O)C(F)(F)F (stereo not drawn)  >512 µg/mL
5  NCCCCCCN(CCCCCCN)C(=O)CC(c1ccccc1)c1ccccc1.O=C(O)C(F)(F)F.O=C(O)C(F)(F)F   128 µg/mL
6  NCCCC[C@H](N)C(=O)NCCCN(CCCNC(=O)[C@@H](N)CCCCN)C(=O)Cc1cccc2ccccc12  >512 µg/mL
7     NCCCCCCN(CCCCCCN)C(=O)Cc1cccc2ccccc12  >512 µg/mL
8  NCCCN(CCCN)C(=O)c1ccc(-c2ccccc2)cc1.O=C(O)C(F)(F)F.O=C(O)C(F)(F)F  >512 µg/mL
9  NCCCN(CCCN)C(=O)Cc1ccccc1.O=C(O)C(F)(F)F.O=C(O)C(F)(F)F  >512 µg/mL

---

# Tested on: P. aeruginosa R590
# protocol summary: Chequerboard combination efficacy of adjuvant with antibiotics
# Format: cell-based
# recorded conditions: antibiotic Rifampicin; P. aeruginosa R590
property label: Potentiation factor

molecule	property label	inequality sign	data value
NCCCC[C@H](N)C(=O)NCCCCCCN(CCCCCCNC(=O)[C@@H](N)CCCCN)CC(=O)NC1C2CC3CC(C2)CC1C3 (stereo partly drawn) [Compound 15]	Potentiation factor	>	1024
NCCCC[C@H](N)C(=O)NCCCN(CCCNC(=O)[C@@H](N)CCCCN)CC(=O)NC1C2CC3CC(C2)CC1C3.O=C(O)C(F)(F)F.O=C(O)C(F)(F)F.O=C(O)C(F)(F)F.O=C(O)C(F)(F)F.O=C(O)C(F)(F)F (stereo partly drawn) [Compound 9]	Potentiation factor	=	256
NCCCC[C@H](N)C(=O)NCCCCCCN(CCCCCCNC(=O)[C@@H](N)CCCCN)C(=O)Cc1cccc2ccccc12 [Compound 13]	Potentiation factor	>	256
NCCCC[C@H](N)C(=O)NCCCN(CCCNC(=O)[C@@H](N)CCCCN)C(=O)CC(c1ccccc1)c1ccccc1 [Compound 8]	Potentiation factor	=	64
NCCCC[C@H](N)C(=O)NCCCN(CCCNC(=O)[C@@H](N)CCCCN)C(=O)Cc1cccc2ccccc12 [Compound 7]	Potentiation factor	=	32
NCCCN(CCCN)C(=O)Cc1cccc2ccccc12.O=C(O)C(F)(F)F.O=C(O)C(F)(F)F [Compound 2]	Potentiation factor	=	8
